Tested on: MCF-10A cells
procedure_summary: in vitro
condition_label: human
measurement_type: IC50 at 72 h

Data request: Identify the reported IC50 at 72 h for the following entry. C=CCNC1=C2C[C@@H](C)C[C@H](OC)[C@H](O)[C@@H](C)/C=C(\C)[C@H](OC(N)=O)[C@@H](OC)/C=C\C=C(/C)C(=O)NC(=CC1=O)C2=O [Compound 17-AAG, reference compound]
Data returned: 90 nM

---

Tested on: MCF-10A cells
procedure_summary: Cytotoxicity towards normal MCF-10A mammary epithelial cells (Cell Titer-Glo)
condition_label: human, MCF-10A normal mammary epithelial cells
Measured IC50 at 72 h, listed per entry for reference.
Enter your answer as a number in µM; do not include the unit.

Examples with their reported IC50 at 72 h follow.
> print(dat)
                                   compound  reported.measurement
1  CCn1ncc2c(NNC(=O)CCl)ncnc21 [Compound 5g]                  23.3
2          CCn1ncc2c(NN)ncnc21 [Compound 4]                  17.4
3   CCn1ncc2c(NNC(C)=O)ncnc21 [Compound 5e]                  20.2

Consider the record given below.
Data request: Tell me its IC50 at 72 h given CCOC(=O)Cn1ncc2c(Nc3ccc(NC(=O)CCl)cc3)ncnc21 [Compound 1] as the entry.
Data returned: 5.59

---

Tested on: BEL-7402
procedure_summary: MTT cell viability assay, human hepatoma carcinoma BEL-7402 cells
Type: cell-based
condition_label: 24 h treatment, concentration inhibiting cancer cell replication by 50%, tested up to 100 μM
pIC50: −log10 of the molar value.
measurement_type: pIC50

Example molecules with recorded pIC50:
> print(dat)
                               entry.smiles  reported.measurement
1  O=[N+]([O-])c1ccc(S(=O)(=O)NCCNc2ncnc3c2cnn3Cc2ccccc2)cc1                < 4.00
2                  Clc1ncnc2c1cnn2Cc1ccccc1                < 4.00
3  O=S(=O)(NCCNc1ncnc2c1cnn2Cc1ccccc1)c1ccc(Br)cc1                < 4.00
4      CCn1ncc2c(NNS(=O)(=O)c3ccccc3)ncnc21                < 4.00
5                NCCNc1ncnc2c1cnn2Cc1ccccc1                < 4.00

Proceed to the following item.
Data request: Please tell me the measured pIC50 for `O=S(=O)(NCCNc1ncnc2c1cnn2Cc1ccccc1)c1ccccc1` ; system: BEL-7402.
Data returned: 4.18

---

Test system: MDA-MB-231 cells
procedure_summary: Cell survival/growth assay (Coulter cell count), MDA-MB-231 cells
Format: cell-based
condition_label: Homo sapiens, 120 h; MDA-MB-231, 1 μM, 5 days; treated/vehicle cell number ratio; read-out: Survival Rate (%) 1 μM
Define the label as true (1) when viability at 1 µM is strictly less than 80% and as false (0) in all remaining cases.

compound	category_label
CCn1ncc2c(NNC(=O)CCl)ncnc21	false (0)
CCn1ncc2c(NNS(=O)(=O)c3ccc(C)cc3)ncnc21	false (0)
CCOC(=O)Cn1ncc2c(Nc3ccc(NC(=O)CCl)cc3)ncnc21	true (1)
Clc1ncnc2c1cnn2Cc1ccccc1	true (1)
C=CCNC1=C2C[C@@H](C)C[C@H](OC)[C@H](O)[C@@H](C)/C=C(\C)[C@H](OC(N)=O)[C@@H](OC)/C=C\C=C(/C)C(=O)NC(=CC1=O)C2=O [Compound 17-AAG, reference compound]	true (1)

Data request: Threshold test, viability at 1 µM < 80%: `CCn1ncc2c(NNC(C)=O)ncnc21`
Data returned: false (0)

Data request: Does the reported viability at 1 µM of the following compound sit strictly below 80%? `CCn1ncc2c(NNS(=O)(=O)c3ccccc3)ncnc21`
Data returned: true (1)

Data request: Quick check: viability at 1 µM of `CCn1ncc2c(NNS(=O)(=O)c3ccc([N+](=O)[O-])cc3)ncnc21` under 80%?
Data returned: false (0)

Data request: Say whether its viability at 1 µM is strictly beneath 80%. Entry: `O=S(=O)(NCCNc1ncnc2c1cnn2Cc1ccccc1)c1ccc(Br)cc1`
Data returned: false (0)

Data request: Does the reported viability at 1 µM of the following compound sit strictly below 80%? `O=[N+]([O-])c1ccc(S(=O)(=O)NCCNc2ncnc3c2cnn3Cc2ccccc2)cc1`
Data returned: true (1)

Data request: Hello, I'm reviewing records and need to know if viability at 1 µM of Oc1ncnc2[nH]ncc12 [allopurinol, 4-hydroxyl-1H-pyrazolo[3,4-d]pyrimidine] is below 80%. Could you check?
Data returned: false (0)

Data request: Consider the compound `CCn1ncc2c(Cl)ncnc21` . Is its viability at 1 µM strictly less than 80%?
Data returned: false (0)

Data request: Item `CCn1ncc2c(N(NC(=O)c3ccccc3)C(=O)c3ccccc3)ncnc21` : viability at 1 µM beneath 80%, strictly?
Data returned: false (0)

Data request: # check: viability at 1 µM < 80% for `CCn1ncc2c(NN)ncnc21`
Data returned: true (1)

---

Tested on: SMMC-7221
procedure_summary: MTT cell viability assay, human hepatoma carcinoma SMMC-7221 cells
Assay type: cell-based
condition_label: SMMC-7221, MTT, 24 h treatment, concentration inhibiting cancer cell replication by 50%, tested up to 100 μM, read-out: IC50 SMMC-7221
measurement_type: IC50

Reference set (5 entries):
molecule	IC50
C=CCNC1=C2C[C@@H](C)C[C@H](OC)[C@H](O)[C@@H](C)/C=C(\C)[C@H](OC(N)=O)[C@@H](OC)/C=C\C=C(/C)C(=O)NC(=CC1=O)C2=O [Compound 17-AAG, reference compound]	9.85 µM
O=[N+]([O-])c1ccc(S(=O)(=O)NCCNc2ncnc3c2cnn3Cc2ccccc2)cc1	81.5 µM
Clc1ncnc2c1cnn2Cc1ccccc1	> 100 µM
CCn1ncc2c(NNC(=O)CCl)ncnc21	> 100 µM
NCCNc1ncnc2c1cnn2Cc1ccccc1	> 100 µM

Data request: Output IC50 of `O=S(=O)(NCCNc1ncnc2c1cnn2Cc1ccccc1)c1ccccc1`
Data returned: > 100 µM

Data request: Give a short answer stating reported IC50 for `CCn1ncc2c(NNC(C)=O)ncnc21` .
Data returned: > 100 µM

Data request: Read off the recorded IC50 for `CCn1ncc2c(NNS(=O)(=O)c3ccccc3)ncnc21`
Data returned: > 100 µM

Data request: Tell me IC50 reported for `CCn1ncc2c(Cl)ncnc21`
Data returned: > 100 µM

---

measurement_type: melting point

Here is how some compounds turned out for melting point.
> print(dat)
                               entry.smiles  measurement.type  reported.measurement
1  CCn1ncc2c(NNS(=O)(=O)c3ccc([N+](=O)[O-])cc3)ncnc21     melting point         194 to 195 °C
2               CCn1ncc2c(NNC(=O)CCl)ncnc21     melting point         202 to 204 °C

Continue with the next compound.
Data request: In one line, give reported melting point of the entry `CCn1ncc2c(NNS(=O)(=O)c3ccc(Br)cc3)ncnc21` .
Data returned: 194 to 195 °C

---

System: MDA-MB-231 cells
procedure_summary: Cell survival/growth assay (Coulter cell count), MDA-MB-231 cells;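 further: cells grown in DMEM with 5% FBS, vehicle control was an equal volume of DMSO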
Type: cell-based
condition_label: Homo sapiens, 120 h; MDA-MB-231, 10 μM, 5 days; treated/vehicle cell number ratio; read-out: Survival Rate (%) 10 μM
measurement_type: viability at 10 µM (%)
Just the number in %, nothing appended.

Solved entries:
molecule	system_under_test	viability at 10 µM (%)
CCn1ncc2c(NNS(=O)(=O)c3ccc(Br)cc3)ncnc21 [Compound 5d]	MDA-MB-231 cells	70.9
CCn1ncc2c(N(NC(=O)c3ccccc3)C(=O)c3ccccc3)ncnc21 [Compound 5f]	MDA-MB-231 cells	88.1
O=[N+]([O-])c1ccc(S(=O)(=O)NCCNc2ncnc3c2cnn3Cc2ccccc2)cc1 [Compound 8b]	MDA-MB-231 cells	71.8

Consider now this further molecule.
Data request: Identify measured viability at 10 µM corresponding to CCn1ncc2c(NNC(=O)CCl)ncnc21 [Compound 5g]
Data returned: 105

---

Listed below: melting point values for each entry.

> print(dat)
                               entry.smiles  measurement.type  reported.measurement
1  CCn1ncc2c(N(NC(=O)c3ccccc3)C(=O)c3ccccc3)ncnc21     melting point         144 to 146 °C
2      CCn1ncc2c(NNS(=O)(=O)c3ccccc3)ncnc21     melting point         194 to 195 °C
3                       CCn1ncc2c(Cl)ncnc21     melting point           76 to 77 °C

Data request: Determine its reported melting point: `Clc1ncnc2c1cnn2Cc1ccccc1`
Data returned: 62 to 63 °C

Data request: Give the value of melting point reported for the following: `CCn1ncc2c(NNS(=O)(=O)c3ccc(C)cc3)ncnc21`
Data returned: 186 to 187 °C
